biological target: YgjD–YeaZ (Escherichia coli, UniProt P05852+P76256); construct: gene tsaD; 1:1 heterodimer of full-length YgjD (337 residues) and YeaZ (231 residues), each C-terminally 6xHis tagged, expressed in E. coli BL21(DE3); nucleotide sites in the YgjD active site and at the YgjD-YeaZ interface; experiment: ITC; assay type: binding
measured.metric: Kd (nM)
Report the figure in nM without appending any unit label.

## Input // returns reported Kd for input Nc1ncnc2c1ncn2[C@@H]1O[C@H](COP(=O)(O)CP(=O)(O)OP(=O)(O)O)[C@@H](O)[C@H]1O [AMPCPP]
## Output 700

----------
target: YjeE (Escherichia coli, UniProt P0AF67, Y82A); construct: full length, C-terminal Strep II tag, expressed in E. coli BL21(DE3) from pET28a; monomer-dimer equilibrium; assay: ITC
measured.metric: Kd (µM)
Numeric only. Scale: µM

## Input Quick check: Kd of `Nc1ncnc2c1ncn2[C@@H]1O[C@H](CO[P@](=O)(O)O[P@](=O)(O)O[P@@](=O)(O)S)[C@@H](O)[C@H]1O` ?
## Output 8.9

----------
biological target: YgjD (Escherichia coli); construct: gene tsaD; full length (337 residues), C-terminal 6xHis tag, expressed in E. coli BL21(DE3) from pET9a; homodimer in solution; experiment: ITC; type: binding
measured.metric: pKd
Would you please state pKd, meaning minus log10 of the concentration in mol/L, as a bare number?

## Input Would you kindly share the measured pKd for Nc1ncnc2c1ncn2[C@@H]1O[C@H](COP(=O)(O)CP(=O)(O)OP(=O)(O)O)[C@@H](O)[C@H]1O [AMPCPP] ?
## Output 5.79

----------
biological target: YjeE (Escherichia coli, UniProt P0AF67, W109A); construct: full length, C-terminal Strep II tag, expressed in E. coli BL21(DE3) from pET28a; monomer-dimer equilibrium; test: ITC
measured.metric: Kd

## Input Could you share which Kd value was measured for `Nc1ncnc2c1ncn2[C@@H]1O[C@H](COP(=O)(O)OP(=O)(O)O)[C@@H](O)[C@H]1O` ?
## Output 4.83 µM

Where do these numbers come from? They come from paper PMC4330362.
